assay: Hemolytic activity assay; assay type: cell-based; conditions: mouse, murine red blood cells (mRBCs)
REPORTED METRIC: hemolysis at 60 min, 7.8 µg/mL (%)
One number for each entry, in %.

CCCCCCCCCCCCN1CCNCC1: 52
CCCCCCCCCCN1CCN(CC(O)(Cn2cncn2)c2ccc(Cl)cc2Cl)CC1 (stereo not drawn): 22
CCCCCCCCCCCCN1CCN(CC(O)(Cn2cncn2)c2ccc(Cl)cc2Cl)CC1 (stereo not drawn): 85

Now for a further molecule.
IN: # query: hemolysis at 60 min, 7.8 µg/mL of entry "CCCCCCCCCCCCCCN1CCNCC1"
OUT: 93

* * *

system: C. albicans ATCC 64124(R) (B); assay: MIC determination by in vitro antifungal assay; format: cell-based; conditions: Candida albicans, ATCC64124, 48 h, read-out: MIC (MIC-0)
REPORTED METRIC: MIC

Before answering, review these 2 worked examples.
CN1CCNCC1: > 31.3 µg/mL
OC(CN1CCOCC1)(Cn1cncn1)c1ccc(F)cc1F (stereo not shown): > 31.3 µg/mL

For each of the molecules below, note its MIC.
1. CCCCCN1CCN(CC(O)(Cn2cncn2)c2ccc(F)cc2F)CC1 (stereo not shown)
2. CCCCCN1CCNCC1
3. CCCCCCCCN1CCNCC1
4. CCCCCCCCCCCCCCN1CCOCC1
5. CCCCCCCCCN1CCNCC1

OUT:
1: > 31.3 µg/mL; 2: > 31.3 µg/mL; 3: > 31.3 µg/mL; 4: > 31.3 µg/mL; 5: > 31.3 µg/mL
